As shown below, each of these sequences has a reported protein stability index value.
- assay remarks: protein stability index of a GFP-peptide fusion (GPS, HEK-293T) (PSI 1-6); higher = more stable;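 note: 24-mer peptide tiles fused after GFP, lentivirally expressed, FACS-sorted into six equal bins by GFP/DsRed ratio, decoded by Illumina sequencing, PSI is the read-weighted mean bin number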
- condition label: treatment: DMSO; c terminus: native

- sequence data: "LVLQTSEGKALQQYPSERELRGI [TRIM9]"
  protein stability index: 3.01
- sequence data: "KNTEVSSMECEKNLYWICNKPYK [CD69]"
  protein stability index: 2.97
- sequence data: "TACSLPLCACLLGQKMLRHCGRT [PXN]"
  protein stability index: 3.03

---

- assay remarks: protein stability index of a GFP-peptide fusion (GPS, HEK-293T) (PSI 1-6); higher = more stable
- condition label: treatment: MLN4924 1 uM, 8 h; c terminus: a fixed tail appended
Measured protein stability index, listed per entry.

- sequence data: "IYNSHLVVHQRVHSGEKPYKCSDC [ZNF232]"
  protein stability index: 3.02
- sequence data: "QLLARRMQVDKKRVYLATDDPSLL [FUT8]"
  protein stability index: 2.92
- sequence data: "SKPKTFQAYLDDCHRRYSCAHCRA [YPEL3]"
  protein stability index: 3.04

---

- assay remarks: protein stability index of a GFP-peptide fusion (GPS, HEK-293T) (PSI 1-6); higher = more stable
- condition label: treatment: MLN4924 1 uM, 8 h; c terminus: a fixed tail appended
Class Yes: protein stability index at least 4. Class No: protein stability index below 4.

- sequence data: "TLNVDRKEKCVSLPDCCHGSELRD [DLC1]"
  class: "Yes"
- sequence data: "SSFQDLLGDALAGPPRAPGRSGWP [HES6]"
  class: "No"
- sequence data: "AAPGKQPGRGHTHAAQGGPLLCPG [ELOA2]"
  class: "Yes"
- sequence data: "DKRHVEQKIQFKRETASLKLLPHQ [PDZK1]"
  class: "No"
- sequence data: "LISNASDALDKIRYESLTDPSKLD [HSP90AB1]"
  class: "No"
- sequence data: "SKQSPPMASSPIQPRKGGADWLGL [FBF1]"
  class: "No"

---

- assay remarks: protein stability index of a GFP-peptide fusion (GPS, HEK-293T) (PSI 1-6); higher = more stable
- condition label: treatment: DMSO; c terminus: a fixed tail appended
Would you please tag the item Y when its protein stability index is 4 or above, and N when it is below?

- sequence data: "QDLDSRLRAGSSEFDSEHNLTSNE [RASAL3]"
  class: "Y"
- sequence data: "IRLQAELEEGENPVPAFQSDGTDE [SMG5]"
  class: "Y"
- sequence data: "YLIMLPFRFTYYTILDIFRFALRF [FAF2]"
  class: "N"
- sequence data: "LSALLRATPGEYSVNICGMNEHPV [SPAG8]"
  class: "N"
- sequence data: "RADCASESACSSDSLDEARSSGSE [PWWP2B]"
  class: "Y"
- sequence data: "LAEARRLFPGRVSVDLMLGLPAQQ [RSAD1]"
  class: "N"
- sequence data: "PGSASLAQSRLEDPGADSEKSTVV [DLX1]"
  class: "Y"
- sequence data: "YLYGILEERKNEMTQVITRTQEEK [TRIM55]"
  class: "N"
- sequence data: "NSAIRFLRKYSFDGLDLDWEYPGS [CHIT1]"
  class: "N"
- sequence data: "LGLNAAFWFFALTSLRLVFLLAFG [RETREG3]"
  class: "N"
- sequence data: "GPFRTLLQFLYTGQLDEKEKDLVG [RHOBTB1]"
  class: "N"
- sequence data: "VQTWTQPRLCYLVKEGGSYGFSLK [PDZK1]"
  class: "N"
- sequence data: "GLEQFINKVAGHPLAQNERCLHMF [SNX3]"
  class: "N"
- sequence data: "TPGGRGDMKYGIYAVENEHMNRLQ [VTI1B]"
  class: "N"
- sequence data: "GGLLDEAMLDEISLMDLAIEEGFN [NFE2L1]"
  class: "Y"
- sequence data: "YKGPLLEEQALTKAAEGGLSSPEF [FAM98B]"
  class: "Y"
- sequence data: "TTEQHVPEVEVQVKRRRTASLSNQ [SNURF]"
  class: "Y"
- sequence data: "QVENWSAFAPDFKELDENVEYEER [RBBP5]"
  class: "Y"
- sequence data: "VASGYHYGVASCEACKAFFKRTIQ [ESRRA]"
  class: "N"
- sequence data: "ITIGYRVYHSYDLPWFRTLSWYFL [CDS1]"
  class: "N"
- sequence data: "YLRFIVSRMKERAIDLNKKGKDNK [ZMYND11]"
  class: "N"
- sequence data: "GATVGRKSRRSRSESETSTMAAKK [C18orf25]"
  class: "Y"
- sequence data: "DFITLYQMASQSSASHYKLQVIKA [M1AP]"
  class: "N"
- sequence data: "SEHVLKKAHKYSELIILYEKKGLH [VPS39]"
  class: "N"
- sequence data: "PNIQEAVEGAMHIQECVPEDLELK [CRYL1]"
  class: "Y"
- sequence data: "SVVLRRARGGAVSARYVLPDEAAR [DUSP5]"
  class: "N"
- sequence data: "QPPDMASALTDRTSRAPSTYTYTS [RSPH3]"
  class: "Y"
- sequence data: "NKLQYHAGLASGLLNQQSLKRSAN [MED27]"
  class: "N"
- sequence data: "EFPQFEPQRYPACAQMLPPNLSPH [TRAF3IP2]"
  class: "N"
- sequence data: "LHPLLSGRLGRWLRSTRFSGSLDR [PCDHGC5]"
  class: "N"
- sequence data: "MPLSGTPAPNKKRKSSKLIMELTG [MYOZ1]"
  class: "N"
- sequence data: "RVYVSGLMKGGADLFVENMPGFPD [APMAP]"
  class: "N"
- sequence data: "VELLHNTSYTRQACLVSCFQQLMV [SCNN1D]"
  class: "N"
- sequence data: "RCINDPYLEVLETMDNKKGRRYEA [CLCN6]"
  class: "N"
- sequence data: "SGSDVLDNVAYARAFNTDHQTQLL [RAD51]"
  class: "N"
- sequence data: "TLNVDRKEKCVSLPDCCHGSELRD [DLC1]"
  class: "Y"
- sequence data: "HIFAHRIYLATSSSKFYDLFLMEC [RHOBTB1]"
  class: "N"

The origin of these recorded values is the supplement of paper PMC10567573.
